# Population Pyknosed Nuclei (%) per entry
System: Fibroblast
Test: Multiplex assay against human fibroblast
Format: toxicity, cell-based
Conditions: 24 h, 10 µM, compound concentration 10 uM, replicate 2
MEASUREMENT NAME: Population Pyknosed Nuclei (%)

compound=Cl.NC[C@@H]1O[C@H](C23CC4CC(CC(C4)C2)C3)Cc2c1ccc(O)c2O study_target=Fibroblast measurement_name="Population Pyknosed Nuclei (%)" unit_text=% recorded_number=20
compound="CN1C(=O)[C@@H](NC(=O)c2cc3ccccc3[nH]2)N=C(c2ccccc2)c2ccccc21 [DEVAZEPIDE]" study_target=Fibroblast measurement_name="Population Pyknosed Nuclei (%)" unit_text=% recorded_number=22
compound=NC(=O)c1ccc2nc(-c3ccc(C4(N)CCC4)cc3)c(-c3ccccc3)n2n1 study_target=Fibroblast measurement_name="Population Pyknosed Nuclei (%)" unit_text=% recorded_number=13
compound=C[C@@H](Oc1cc(-n2cnc3ccc(CN4CCN(C)CC4)cc32)sc1C(N)=O)c1ccccc1C(F)(F)F study_target=Fibroblast measurement_name="Population Pyknosed Nuclei (%)" unit_text=% recorded_number=41

Data provenance: ChEMBL document CHEMBL4689842
